Origin of measurements: PubChem BioAssay AID1645868

TGT: OTU domain-containing protein 3 (Homo sapiens) (UniProt Q5T2D3)
Sequence (Q5T2D3 whole entry, looked up, the tested form may be a part): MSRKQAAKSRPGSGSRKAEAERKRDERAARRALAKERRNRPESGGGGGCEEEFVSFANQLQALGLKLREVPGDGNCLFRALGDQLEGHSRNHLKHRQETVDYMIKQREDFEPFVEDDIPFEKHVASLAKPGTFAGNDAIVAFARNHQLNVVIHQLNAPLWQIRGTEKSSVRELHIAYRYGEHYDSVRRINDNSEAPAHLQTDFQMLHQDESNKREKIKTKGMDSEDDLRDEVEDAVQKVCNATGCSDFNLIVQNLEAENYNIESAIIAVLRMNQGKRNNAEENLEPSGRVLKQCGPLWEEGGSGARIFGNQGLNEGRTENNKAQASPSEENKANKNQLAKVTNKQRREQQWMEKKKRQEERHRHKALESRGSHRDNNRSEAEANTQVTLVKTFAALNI
PROCEDURE_SUMMARY: Validation of screening hits, potency titration, in vitro enzymatic, OTU domain-containing protein 3 DUB inhibitors (AID 1645868)
REPORTED_CONDITIONS: purified OTUD3, ubiquitin-rhodamine cleavage fluorescence, 2 h
Activity calls are given as the source filed them.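 The calls were made as follows: active = maximal percent inhibition of the deubiquitinase OTUD3 of at least 30% across the tested doses; inactive = the rest.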
Classes to choose from: Y (active), N (inactive)

O=C(Nc1ccc(Oc2cccc3cccnc23)cc1)c1cccs1: N
O=C1CC(NS(=O)(=O)c2ccc3ccccc3c2)CN1c1cccc(F)c1 (stereo not drawn): N
C=C(NC(=O)C(=C)NC(=O)c1csc(C2=N[C@@H]3c4csc(n4)[C@H]4NC(=O)c5csc(n5)[C@H]([C@](C)(O)[C@@H](C)O)NC(=O)[C@H]5CSC(=N5)/C(=C/C)NC(=O)C([C@@H](C)O)NC(=O)c5csc(n5)C3(CC2)NC(=O)[C@H](C)NC(=O)C(=C)NC(=O)[C@H](C)NC(=O)C([C@@H](C)CC)N[C@@H]2C=Cc3c(C(C)O)cc(nc3[C@H]2O)C(=O)OC4C)n1)C(N)=O (stereo partly drawn): N

Q: For O=C(COc1ccccc1-c1nnc(-c2ccccc2)o1)Nc1ccc(F)cc1F , which call appears in the assay record?
Result: Y

Q: For c1ccc(-n2nnc(-c3noc(-c4ccccn4)n3)c2-c2ccncc2)cc1 , which call appears in the assay record?
Result: Y

Q: For COc1cnc(CSc2ncccn2)cc1OCC(=O)Nc1cc(C)ccc1C , which call appears in the assay record?
Result: N

Q: For CCn1ccc2c(cc(C(=O)Nc3cc(F)ccc3F)n2C)c1=O , which call appears in the assay record?
Result: N

Q: For O=S(=O)(c1ccc2c(c1)OCCO2)N(Cc1ccccc1)Cc1nnc(-c2ccccc2)o1 , which call appears in the assay record?
Result: N

---

TGT: OTU domain-containing protein 3 (Homo sapiens) (UniProt Q5T2D3)
PROCEDURE_SUMMARY: Validation of screening hits, potency titration, in vitro enzymatic, OTU domain-containing protein 3 DUB inhibitors (AID 1645868)
REPORTED_CONDITIONS: purified OTUD3, ubiquitin-rhodamine cleavage fluorescence, 2 h
Calls of active or inactive are those of the source.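 How the source made its calls: active means maximal percent inhibition of the deubiquitinase OTUD3 of at least 30% across the tested doses; inactive means the rest.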
Classes to choose from: active, inactive

Please review the following examples before continuing.
O=c1c2cnc(N3CCOCC3)nc2ccn1CCc1ccccc1: active
CCCNc1cc(-c2ccccc2)nc2nc(-c3cccnc3)nn12: inactive
Cc1noc(NS(=O)(=O)c2ccc(NC(=O)CSc3ccc4ccccc4c3)cc2)c1C: inactive
COc1cccc(CC(=O)Nc2cc(F)c3nc(N4CCOCC4)ccc3c2)c1: inactive
COc1cc(Cl)ccc1Nc1ncc(C(=O)Nc2cc(OC)c(OC)c(OC)c2)c2ccccc12: active
Cn1c2ccccc2c(=O)c2c(=O)n(Cc3ccccc3)c(-c3ccccc3F)nc21: active
CCn1c(Cn2cccn2)nc2cc(NC(=O)c3ccc(F)cc3)ccc21: inactive
COc1ccccc1-c1ccc(CN2[C@@H](c3ccccc3)C[C@@H]3NC(=O)CCC[C@H]32)cc1: inactive

Q: For COc1cccc(NC(=O)C2CCC(CNS(=O)(=O)c3ccc4c(c3)C(C)(C)C(=O)N4C)CC2)c1 (stereo not drawn) , which call appears in the assay record?
Result: inactive

Q: For Cc1oc(C2CC2)cc1C(=O)N1CCC2(CC1)CC1(CO2)Nc2ccccc2-n2cccc21 (stereo not drawn) , which call appears in the assay record?
Result: inactive
